- testTarget: CISH (Homo sapiens, UniProt Q9NSE2)
- Construct: the DNA-tagged SH2 domain concentrations used in this study were <0.1 nM; made in house; host or cells: HEK293 (transient transfection; unpurified extract)
- Sequence (Q9NSE2 82-163 limits assumed): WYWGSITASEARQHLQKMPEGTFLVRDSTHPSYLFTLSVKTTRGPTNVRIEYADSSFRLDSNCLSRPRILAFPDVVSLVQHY
- runDescription: biochemical
- Type: binding
- protocolConditions: read-out: percent of DMSO vehicle control
Non-standard residues stand in square brackets, D forms with d. Residues, ends and D or L forms follow the SMILES beside them. *: point of attachment. pY = N[C@@H](Cc1ccc(OP(=O)(O)O)cc1)C(=O)O; Caffeoyl = O=C(/C=C/c1ccc(O)c(O)c1)*
metric: remaining activity at 10 µM (%)
Just the number please, in %, no unit attached.

Quick one: remaining activity at 10 µM for CC(=O)N1CC[C@H]2CC[C@@H](C(=O)N[C@@H](CCC(N)=O)C(=O)NC(c3ccccc3)c3ccccc3)N2C(=O)[C@@H](NC(=O)c2cc3cc(C(F)(F)P(=O)(O)O)ccc3[nH]2)C1 [SI-109] ? 102

Quick one: remaining activity at 10 µM for CC(=O)N[C@@H](Cc1ccc(CP(=O)(O)O)cc1)C(=O)NC1(C(=O)N[C@@H](CC(N)=O)C(=O)NCCCc2c(O)ccc3ccccc23)CCCCC1 [CGP78850] ? 117

Quick one: remaining activity at 10 µM for NC(=O)CC[C@H](NC(=O)[C@@H]1CC[C@@H]2CCN(C(=O)CCCCCC#Cc3cccc4c3CN(C3CCC(=O)NC3=O)C4=O)C[C@H](NC(=O)c3cc4cc(C(F)(F)P(=O)(O)O)ccc4[nH]3)C(=O)N21)C(=O)NC(c1ccccc1)c1ccccc1 (stereo partly shown) [SD-36] ? 42.8

Quick one: remaining activity at 10 µM for CC[C@H](C)[C@H](NC(=O)[C@H](CCC(=O)O)NC(=O)[C@H](CCC(=O)O)NC(=O)[C@H](Cc1ccc(OP(=O)(O)O)cc1)NC(=O)/C=C/c1ccc(O)c(O)c1)C(=O)N[C@@H](CCC(=O)O)C(=O)O [Caffeic acid-pYEEIE] (Caffeoyl-[pY]EEIE-OH) ? 4.9

Values compiled from paper PMC12951562.
